Assign pIC50 to each entry below.
- SYSTEM_NAME: human TRPV1 (Homo sapiens, UniProt Q8NER1)
- Construct: using primers designed surrounding the complete hTRPV1 open reading frame; expressed in transfected cells; host or cells: CHO-K1 cells stably transfected with pcDNA3.1(-)-hVR1 plasmid
- Sequence (Q8NER1 whole entry): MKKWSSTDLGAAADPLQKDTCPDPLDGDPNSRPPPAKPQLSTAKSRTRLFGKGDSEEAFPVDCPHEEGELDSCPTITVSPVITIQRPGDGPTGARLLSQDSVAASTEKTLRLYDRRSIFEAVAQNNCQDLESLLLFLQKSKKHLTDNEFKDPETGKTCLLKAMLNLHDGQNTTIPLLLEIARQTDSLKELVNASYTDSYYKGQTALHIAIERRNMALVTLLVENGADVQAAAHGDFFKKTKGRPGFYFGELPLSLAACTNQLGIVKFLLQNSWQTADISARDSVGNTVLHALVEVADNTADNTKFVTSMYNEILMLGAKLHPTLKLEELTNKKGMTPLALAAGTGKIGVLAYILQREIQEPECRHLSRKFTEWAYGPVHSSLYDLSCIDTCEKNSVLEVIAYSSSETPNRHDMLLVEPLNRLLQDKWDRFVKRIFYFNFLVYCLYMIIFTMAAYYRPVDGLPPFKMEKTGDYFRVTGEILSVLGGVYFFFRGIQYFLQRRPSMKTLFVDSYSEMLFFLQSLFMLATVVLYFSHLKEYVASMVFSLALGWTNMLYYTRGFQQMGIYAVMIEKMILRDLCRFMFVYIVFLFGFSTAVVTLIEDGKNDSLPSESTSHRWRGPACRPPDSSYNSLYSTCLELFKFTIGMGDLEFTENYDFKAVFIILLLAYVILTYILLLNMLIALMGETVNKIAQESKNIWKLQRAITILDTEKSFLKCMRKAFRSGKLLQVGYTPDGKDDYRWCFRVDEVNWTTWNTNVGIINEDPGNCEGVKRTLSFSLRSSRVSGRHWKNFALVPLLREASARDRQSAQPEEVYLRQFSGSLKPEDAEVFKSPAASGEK
- PROTOCOL_SUMMARY: Capsaicin-based assay, Protocol 2 (TRPV1/CHO cells, Fluo-4, FLIPR)
- Type: cell-based
- ASSAY_CONDITIONS: capsaicin 100 nM final, mean ± SEM, number of trials in parentheses, read-out: TRPV1 IC50 Potency, Human Capsaicin CHO (hCAP-CHO)
Numbers only, as −log10 of the molar value.

                                   compound  endpoint_name   val
0  O=C(Nc1ccc(C(F)(F)F)cn1)N1CC=C(c2ncc(CO)cc2Cl)CC1 [Compound Z2]          pIC50  6.40
1  O=C(Nc1ccc(C(F)(F)F)cc1)N1CCC(F)(c2ncccc2Cl)CC1 [Compound 203]          pIC50  7.04
2  O=C(Nc1ccc(S(=O)(=O)C(F)(F)F)cc1)N1CCC(F)(c2ncc([C@@H](O)CO)cc2Cl)CC1 [Compound B4]          pIC50  7.24

Hi, could you look up pIC50 for each item in my list?
1. O=C(Nc1ccc(Cl)c(C(F)(F)F)c1)N1CC=C(c2ncc([C@H](O)CO)cc2F)CC1 [Compound K2]
2. CCCOc1cc(NC(=O)N2CC=C(c3ncc(CO)cc3Cl)CC2)ccc1C(F)(F)F [Compound O2]

[6.85, 6.79]

###

- SYSTEM_NAME: human TRPV1 (Homo sapiens, UniProt Q8NER1)
- Construct: using primers designed surrounding the complete hTRPV1 open reading frame; expressed in transfected cells; host or cells: CHO-K1 cells stably transfected with pcDNA3.1(-)-hVR1 plasmid
- PROTOCOL_SUMMARY: Capsaicin-based assay, Protocol 2 (TRPV1/CHO cells, Fluo-4, FLIPR)
- Format: cell-based
- ASSAY_CONDITIONS: capsaicin 100 nM final, mean ± SEM, number of trials in parentheses, read-out: TRPV1 IC50 Potency, Human Capsaicin CHO (hCAP-CHO)
ENDPOINT_NAME: pIC50
Answers are plain numbers, as −log10 of the molar value.

I would be grateful if you could provide pIC50 for each of the following entries.
1. O=C(Nc1ccc(C(F)(F)F)cc1)N1CC=C(c2ncc([C@H](O)CO)cc2F)CC1 [Compound U1]
2. CC(O)c1cnc(C2=CCN(C(=O)Nc3ccc(C(F)(F)F)cc3)CC2)c(Cl)c1 (stereo not drawn) [Compound G2]
3. O=C(Nc1nc2ccc(F)cc2s1)N1CCC(F)(c2ncc([C@H](O)CO)cc2F)CC1 [Compound F5]

[7.21, 6.95, 6.78]

###

Would you kindly list log10 of IC50 for each of these compounds?
- SYSTEM_NAME: human TRPV1 (Homo sapiens, UniProt Q8NER1)
- Construct: using primers designed surrounding the complete hTRPV1 open reading frame; expressed in transfected cells; host or cells: CHO-K1 cells stably transfected with pcDNA3.1(-)-hVR1 plasmid
- PROTOCOL_SUMMARY: Capsaicin-based assay, Protocol 2 (TRPV1/CHO cells, Fluo-4, FLIPR)
- Assay type: cell-based
- ASSAY_CONDITIONS: capsaicin 100 nM final, mean ± SEM, number of trials in parentheses, read-out: TRPV1 IC50 Potency, Human Capsaicin CHO (hCAP-CHO)
Heads up, the numbers here are log10 of IC50 in nM units.

Respectfully, I request log10 of IC50 for each entry included below.
1. CN(C)c1ccc(NC(=O)N2CC=C(c3ncc(CO)cc3Cl)CC2)cc1C(F)(F)F
2. O=C(Nc1ccc(C(F)(F)F)c(F)c1)N1CCC(F)(c2ncc([C@H](O)CO)cc2F)CC1
3. CN(C)Cc1cnc(C2=CCN(C(=O)Nc3ccc(C(F)(F)F)cc3)CC2)c(Cl)c1

[1.87, 1.64, 2.97]

Report log10 of IC50 for every entry below.
1. O=C(Nc1ccc(C(F)(F)F)cc1)N1CCC(F)(c2ncc([C@@H](O)CO)cc2Cl)CC1
2. O=C(Nc1nc2ccc(Cl)cc2s1)N1CCC(F)(c2ncc([C@@H](O)CO)cc2F)CC1
3. O=C(Nc1ccc(OC(F)(F)F)cc1)N1CC=C(c2ncc([C@H](O)CO)cc2Cl)CC1 [Compound E2]
4. O=C(Nc1ccc(S(=O)(=O)N2CCCC2)c(C(F)(F)F)c1)N1CC=C(c2ncc([C@@H](O)CO)cc2Cl)CC1
5. CCCOc1cc(NC(=O)N2CC=C(c3ncc([C@H](O)CO)cc3Cl)CC2)ccc1C(F)(F)F
6. Cc1cc(NC(=O)N2CCC(F)(c3ncc([C@H](O)CO)cc3F)CC2)ccc1OC(F)(F)F

1: 0.89; 2: 1.55; 3: 2.03; 4: 2.73; 5: 1.61; 6: 1.19

Data provenance: patent US20090170867A1
